Where do the numbers come from? From PubChem BioAssay AID1963982.

- Test system: 313798-341-R-J2-PDC spheroids, viability
- assay_info: Anticancer human tumor 313798-341-R-J2-PDC patient-derived cervical squamous cell carcinoma cell line growth inhibition [PI3K]
- details: second compound 0.0316 µM; first compound 0.316 µM; stronger effect = lower value; spheroids with HUVEC and MSC
readout: viability, T/C (%)
One number for each entry, in %.

molecule: CC(Cn1ccc(-c2ccc(C#N)c(Cl)c2)n1)NC(=O)c1cc(C(C)O)[nH]n1 (stereo not given) + CC(Nc1ncnc2nc[nH]c12)c1cc2cccc(Cl)c2c(=O)n1-c1ccccc1
test_system: 313798-341-R-J2-PDC spheroids, viability;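 also: spheroids exposed to compounds for seven days; 100% = DMSO vehicle control viability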
readout: viability, T/C
unit_text: %
test_result: 106
//
molecule: CNC(=O)c1ccc(N2C(=S)N(c3ccc(C#N)c(C(F)(F)F)c3)C(=O)C2(C)C)cc1F + CC(Nc1ncnc2nc[nH]c12)c1cc2cccc(Cl)c2c(=O)n1-c1ccccc1
test_system: 313798-341-R-J2-PDC spheroids, viability;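 also: spheroids exposed to compounds for seven days; 100% = DMSO vehicle control viability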
readout: viability, T/C
unit_text: %
test_result: 100
//
molecule: Cn1nccc1Nc1nccc(-c2ccn(C(CO)c3ccc(Cl)c(F)c3)c(=O)c2)n1 (stereo not given) + Cc1nc(NC(=O)N2CCCC2C(N)=O)sc1-c1ccnc(C(C)(C)C(F)(F)F)c1
test_system: 313798-341-R-J2-PDC spheroids, viability;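 also: spheroids exposed to compounds for seven days; 100% = DMSO vehicle control viability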
readout: viability, T/C
unit_text: %
test_result: 92.9
//
molecule: C[C@@H](NC(=O)c1ncnc(N)c1Cl)c1ncc(C(=O)Nc2cc(C(F)(F)F)c(Cl)cn2)s1 + COc1c(OCCCN2CCOCC2)ccc2c3n(c(=NC(=O)c4cnc(N)nc4)nc12)CCN3
test_system: 313798-341-R-J2-PDC spheroids, viability;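 also: spheroids exposed to compounds for seven days; 100% = DMSO vehicle control viability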
readout: viability, T/C
unit_text: %
test_result: 84.4

Let's switch to this molecule now.
So, Cn1nccc1Nc1nccc(-c2ccn(C(CO)c3ccc(Cl)c(F)c3)c(=O)c2)n1 (stereo not given) + CC(Nc1ncnc2nc[nH]c12)c1cc2cccc(Cl)c2c(=O)n1-c1ccccc1 ? Its viability, T/C was 90.1
